biological target: UniProt Q96P20; experiment: THP-1 cells pyroptosis assay (LPS + nigericin, resazurin readout); assay type: cell-based; set-up: Seed THP-1 cells (25,000 cells/well) containing 1.0 μg/ml LPS; host or cells: THP-1 cells; details: NLRP3 inhibitory activity, 1.0 μg/ml LPS, 3 hrs compound, nigericin 5 μM 1 hr
Sequence (Q96P20 whole entry): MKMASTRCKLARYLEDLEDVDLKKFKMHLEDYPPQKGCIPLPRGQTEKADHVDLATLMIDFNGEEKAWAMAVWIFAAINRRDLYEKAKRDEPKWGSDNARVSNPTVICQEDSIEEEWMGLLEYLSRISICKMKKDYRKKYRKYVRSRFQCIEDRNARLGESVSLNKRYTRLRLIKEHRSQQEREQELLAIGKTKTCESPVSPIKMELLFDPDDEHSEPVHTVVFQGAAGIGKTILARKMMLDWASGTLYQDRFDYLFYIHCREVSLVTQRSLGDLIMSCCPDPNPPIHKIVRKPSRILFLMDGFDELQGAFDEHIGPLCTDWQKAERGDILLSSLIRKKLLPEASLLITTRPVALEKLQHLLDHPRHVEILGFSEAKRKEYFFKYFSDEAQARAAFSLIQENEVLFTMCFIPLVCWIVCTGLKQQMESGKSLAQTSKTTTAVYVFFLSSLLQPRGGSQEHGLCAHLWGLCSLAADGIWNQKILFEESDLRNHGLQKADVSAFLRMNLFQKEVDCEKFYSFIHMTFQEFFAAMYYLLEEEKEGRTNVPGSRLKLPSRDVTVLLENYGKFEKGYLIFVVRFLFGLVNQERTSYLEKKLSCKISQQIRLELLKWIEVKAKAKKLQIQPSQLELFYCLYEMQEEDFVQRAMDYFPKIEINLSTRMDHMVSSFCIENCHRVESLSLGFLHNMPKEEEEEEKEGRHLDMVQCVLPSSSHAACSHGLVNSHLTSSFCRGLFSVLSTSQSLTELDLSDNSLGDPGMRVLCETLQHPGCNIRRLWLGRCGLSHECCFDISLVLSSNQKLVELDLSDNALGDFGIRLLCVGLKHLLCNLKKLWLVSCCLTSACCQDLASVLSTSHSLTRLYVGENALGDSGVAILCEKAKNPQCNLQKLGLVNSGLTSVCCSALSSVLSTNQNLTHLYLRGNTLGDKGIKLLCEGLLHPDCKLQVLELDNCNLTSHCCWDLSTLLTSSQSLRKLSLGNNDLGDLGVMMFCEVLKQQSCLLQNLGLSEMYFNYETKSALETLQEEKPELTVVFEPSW
pIC50: −log10 of the molar value.
Provide the recorded pIC50 for the entries that follow.

Reported pIC50 of CC(C)c1cc(F)cc2c1CC(=O)NS(=O)(=O)c1nn(cc1C(=O)N(C)C)C(C)(C)COc1cc-2ccn1 : 5.00 to 5.30

Reported pIC50 of CC(C)c1cccc2c1CC(=O)NS(=O)(=O)c1ccnn1CCCCCOc1cc-2ccn1 : 5.30 to 6.00

Reported pIC50 of CC(C)c1cccc2c1CC(=O)NS(=O)(=O)c1cnn(n1)C(C)(C)COc1cc-2ccn1 : 5.30 to 6.00

Reported pIC50 of CC(C)c1cccc2c1CC(=O)NS(=O)(=O)c1ccn(n1)C(C)(C)COc1cc-2ccn1 : 5.30 to 6.00

Reported pIC50 of CC1(C)COc2cc(ccn2)-c2cccc(C3CC3)c2CC(=O)NS(=O)(=O)c2nn1cc2F : 5.30 to 6.00

Reported pIC50 of CC(C)c1cccc2c1CC(=O)NS(=O)(=O)c1cnn(c1)CCOc1cc-2ccn1 : 5.30 to 6.00

Reported pIC50 of CC(C)c1cccc2c1CC(=O)NS(=O)(=O)c1nn(c3ncccc13)C(C)(C)COc1cc-2ccn1 : 6.00 to 6.30

Reported pIC50 of Cc1ccc(C(C)C)c2c1-c1ccnc(c1)OCC(C)(C)n1ccc(n1)S(=O)(=O)NC(=O)C2 : 5.30 to 6.00
